testTarget: human recombinant 5-HT2A receptor (Homo sapiens, UniProt P28223)
Construct: expressed in transfected cells; host or cells: Jump-In HEK cells (membrane preparation)
Sequence (P28223 whole entry): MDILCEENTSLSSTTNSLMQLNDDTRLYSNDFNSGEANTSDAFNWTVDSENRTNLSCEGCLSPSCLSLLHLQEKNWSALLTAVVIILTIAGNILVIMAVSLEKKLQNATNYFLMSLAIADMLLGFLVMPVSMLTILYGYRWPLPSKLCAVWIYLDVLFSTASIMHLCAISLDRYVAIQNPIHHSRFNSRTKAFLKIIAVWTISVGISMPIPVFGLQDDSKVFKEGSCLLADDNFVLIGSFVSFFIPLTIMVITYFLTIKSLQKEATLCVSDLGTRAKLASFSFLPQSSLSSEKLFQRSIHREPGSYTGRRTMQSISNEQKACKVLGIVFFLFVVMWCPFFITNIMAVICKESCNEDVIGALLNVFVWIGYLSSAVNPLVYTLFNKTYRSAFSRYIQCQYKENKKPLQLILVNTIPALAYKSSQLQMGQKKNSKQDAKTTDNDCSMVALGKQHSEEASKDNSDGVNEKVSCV
method: Test Example 1-2: 5-HT2A receptor binding inhibition test ([3H]-Ketanserin; non-specific ligand Ketanserin)
conditionContext: [3H]-Ketanserin; non-specific binding with 500 µmol/L Ketanserin; room temperature (25°C), 1.5 hours; read-out: h 5-HT2A Ki
pKi: −log10 of the molar value.
endpointName: pKi

I: Cc1nc(C)c(-c2cc(Nc3ccc(C(F)(F)F)cn3)ccc2OCCO)c(C)n1 [Compound I-122]
II: Cc1nc(C)c(-c2cc(Nc3ncc(Cl)cc3C)c(F)cc2OCCO)c(C)n1 [Compound I-173]
III: Cn1ncc(Cl)c1-c1cc(Nc2ncc(Cl)cn2)ccc1OCCO [Compound I-138]
IV: Cn1ncc(Br)c1-c1cc(Nc2nccc3cccnc23)ccc1OCCO [Compound I-111]
Exercise: Sort the molecules on pKi; start with the lowest figure. Form field (ranking): labels in requested order.
Key: IV, II, I, III

---

testTarget: human recombinant 5-HT2C receptor (Homo sapiens, UniProt P28335)
Construct: expressed in transfected cells; host or cells: Jump-In HEK cells (membrane preparation)
Sequence (P28335 33-458): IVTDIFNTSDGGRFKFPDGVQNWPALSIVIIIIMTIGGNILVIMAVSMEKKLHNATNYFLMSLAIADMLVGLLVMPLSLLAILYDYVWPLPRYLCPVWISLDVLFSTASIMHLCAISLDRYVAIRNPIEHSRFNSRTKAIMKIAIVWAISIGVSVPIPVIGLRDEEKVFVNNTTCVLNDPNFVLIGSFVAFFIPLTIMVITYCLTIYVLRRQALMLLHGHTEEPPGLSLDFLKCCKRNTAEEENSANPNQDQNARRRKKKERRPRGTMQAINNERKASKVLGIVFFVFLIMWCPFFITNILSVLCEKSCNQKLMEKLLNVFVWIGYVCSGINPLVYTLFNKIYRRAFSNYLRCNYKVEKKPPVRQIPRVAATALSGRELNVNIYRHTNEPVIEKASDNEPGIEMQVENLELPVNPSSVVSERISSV
method: Test Example 2: 5-HT2C receptor binding inhibition test ([3H]-Mesulergine; non-specific ligand Serotonin HCl)
conditionContext: human serotonin 5-HT2C receptor binding activity
pKi: −log10 of the molar value.
endpointName: pKi

Completed entries (count: 3):
1) Cn1ncc(Br)c1-c1cc(Nc2ccc(C(F)F)nn2)c(F)cc1OCCO | 7.52
2) Cc1nc(C)c(-c2nc(Nc3ccc(-c4ccc(C(F)(F)F)nc4)cn3)c(F)cc2OCCO)c(C)n1 | 8.56
3) COCc1nc(C)c(-c2nc(Nc3ccc(C(F)(F)F)c(C#N)n3)c(F)cc2OCCO)c(C)n1 | 7.76

a: COCc1nc(C)c(-c2cc(Nc3ncc(OC(C)(F)F)cc3Cl)ncc2OCCO)c(C)n1
b: Cn1ncc(Br)c1-c1nc(Nc2ccc(C(F)(F)F)cc2)ncc1OCCO
Exercise: # returns the entry with the larger pKi; inputs a and b Identify your pick by its label.
Key: b
(b: 9.13, a: 8.65)

1: COCC(F)(F)COc1nc(C)c(-c2cc(Nc3ncc(C(F)(F)F)cc3Cl)ncc2OCCO)c(C)n1
2: COCc1nc(C)c(-c2cc(Nc3ncc(-c4ncc(C)s4)cc3Cl)ncc2OCCO)c(C)n1
Exercise: Looking at 1 and 2 , which one comes out lower in pKi terms? Identify your pick by its label.
Key: 1
(1: 8.47, 2: 8.73)

---

testTarget: human recombinant 5-HT2C receptor (Homo sapiens, UniProt P28335)
Construct: expressed in transfected cells; host or cells: Jump-In HEK cells (membrane preparation)
method: Test Example 2-2: 5-HT2C receptor binding inhibition test ([3H]-Mesulergine; non-specific ligand Ketanserin)
conditionContext: non-specific binding with 500 µmol/L Ketanserin, 37°C, 2 hours
endpointName: Ki (pM)

a: Cn1ncc(Br)c1-c1cc(Nc2ncc(C3CC3)s2)ccc1OCCO
b: Cn1ncc(Cl)c1-c1cc(Nc2ncc(C(F)(F)F)cc2F)cnc1OCCO
c: Cn1ncc(F)c1-c1cc(Nc2ncc(Cl)cc2F)ccc1OCCO
Exercise: Sort the molecules on Ki; start with the lowest figure. Form field (ranking): labels in requested order.
Key: b, a, c
